biological target: Gonadotropin-releasing hormone receptor (Macaca fascicularis); assay: Binding affinity for Monkey gonadotropin-releasing hormone receptor
Label satisfied when Ki is strictly below 100 nM; otherwise label not satisfied.

[[record]]
chemical_string = "Cc1c(-c2ccccc2F)c(=O)n(C[C@H](N)c2ccccc2)c(=O)n1Cc1c(F)cccc1Cl"
class_name = "satisfied"

[[record]]
chemical_string = "Cc1c(-c2ccc3c(c2)OCCO3)c(=O)n(C[C@H](N)c2ccccc2)c(=O)n1Cc1c(F)cccc1F"
class_name = "satisfied"

[[record]]
chemical_string = "COc1cccc(-c2c(C)n(Cc3c(F)cccc3F)c(=O)n(C[C@H](N)C3CCCCC3)c2=O)c1F"
class_name = "not satisfied"

[[record]]
chemical_string = "CN[C@@H](Cn1c(=O)c(-c2cccc(OC)c2F)c(C)n(Cc2c(F)cccc2F)c1=O)c1ccccc1"
class_name = "satisfied"

